Give measured log10 of IC50 for each item. Keep answers brief.
Biological target: S2-receptor (Rattus norvegicus)
Construct: Caudal arteries from fasted male rats; from tissue; host or cells: rat caudal artery, helical strips
Sequence (P14842 whole entry): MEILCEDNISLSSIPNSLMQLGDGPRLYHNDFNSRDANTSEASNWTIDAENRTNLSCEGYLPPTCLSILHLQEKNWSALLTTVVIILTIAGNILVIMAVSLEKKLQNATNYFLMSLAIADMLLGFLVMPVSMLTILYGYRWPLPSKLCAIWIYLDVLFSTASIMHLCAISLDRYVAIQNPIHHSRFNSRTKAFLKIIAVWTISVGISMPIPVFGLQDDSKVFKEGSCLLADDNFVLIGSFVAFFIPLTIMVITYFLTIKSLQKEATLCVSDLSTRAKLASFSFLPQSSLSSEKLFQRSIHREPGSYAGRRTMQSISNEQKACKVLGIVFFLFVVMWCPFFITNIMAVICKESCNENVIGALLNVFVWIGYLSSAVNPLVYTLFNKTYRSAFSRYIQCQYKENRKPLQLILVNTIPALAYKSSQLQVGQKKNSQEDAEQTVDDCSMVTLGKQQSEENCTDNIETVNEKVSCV
Experiment: antagonistic activity on the effect of serotonin on the caudal artery of the rat (caudal artery test)
Details: rat caudal artery strips; serotonin 40 ng/ml; 5 minutes after adding the drug; read-out: ED50 (minimal concentration which reduces the amplitude of the serotonin-induced contraction to at least 50% of its normal value) (converted)
Structures can show the parent of a compound that is named as a salt.
Response schema: value (number) is log10 of IC50 in units of pM.

Data request: Returns the measured log10 of IC50 for the input molecule. Input: Cc1nc2n(c(=O)c1CCN1CCC(=C(c3ccc(F)cc3)c3ccc(Br)cc3)CC1)CCCC2
Data returned: 0.12

Data request: Returns the measured log10 of IC50 for the input molecule. Input: Cc1nc2n(c(=O)c1CCN1CCC(=C(c3ccccc3)c3ccc(O)cc3)CC1)CCS2
Data returned: 0.74

Data request: Returns the measured log10 of IC50 for the input molecule. Input: Cc1nc2ccccn2c(=O)c1CCN1CCC(=C(c2ccc(O)cc2)c2ccc(F)cc2)CC1
Data returned: 0.42

Data request: Returns the measured log10 of IC50 for the input molecule. Input: Cc1ccc(C(=C2CCN(CCc3c(C)nc4n(c3=O)CCCC4)CC2)c2ccccc2)cc1
Data returned: -0.15

Data request: Returns the measured log10 of IC50 for the input molecule. Input: Cc1nc2ccc(N)cn2c(=O)c1CCN1CCC(=C(c2ccc(F)cc2)c2ccc(F)cc2)CC1
Data returned: 0.16

Data request: Returns the measured log10 of IC50 for the input molecule. Input: COc1ccc(C(=C2CCN(CCc3c(C)nc4n(c3=O)CCCS4)CC2)c2ccc(F)cc2)cc1 [Compound 145, dihydrochloride]
Data returned: 0.35

Data request: Returns the measured log10 of IC50 for the input molecule. Input: Cc1ccc(C(=C2CCN(CCc3c(C)nc4sccn4c3=O)CC2)c2ccc(F)cc2)cc1
Data returned: -0.17

Data request: Returns the measured log10 of IC50 for the input molecule. Input: Cc1ccc2nc(C)c(CCN3CCC(=C(c4ccc(F)cc4)c4ccc(F)cc4)CC3)c(=O)n2c1
Data returned: 0.16

Data request: Returns the measured log10 of IC50 for the input molecule. Input: Cc1nc2ccccn2c(=O)c1CCN1CCC(=C(c2ccc(F)cc2)c2ccc(Cl)cc2)CC1
Data returned: 0.41

Data request: Returns the measured log10 of IC50 for the input molecule. Input: Cc1nc2sccn2c(=O)c1CCN1CCC(=C(c2ccc(F)cc2)c2cccc(F)c2)CC1
Data returned: -0.53

Data request: Returns the measured log10 of IC50 for the input molecule. Input: Cc1nc2ccccn2c(=O)c1CCN1CCC(=C(c2ccc(F)cc2)c2cccc(F)c2)CC1
Data returned: -0.17

Data request: Returns the measured log10 of IC50 for the input molecule. Input: Cc1nc2n(c(=O)c1CCN1CCC(=C(c3ccc(Cl)cc3)c3ccc(Cl)cc3)CC1)CCS2
Data returned: 0.40

Data request: Returns the measured log10 of IC50 for the input molecule. Input: Cc1nc2n(c(=O)c1CCN1CCC(=C(c3ccc(Cl)cc3)c3ccc(Cl)cc3)CC1)CCCC2
Data returned: 0.15

Data request: Returns the measured log10 of IC50 for the input molecule. Input: COc1ccc(C(=C2CCN(CCc3c(C)nc4n(c3=O)CCCC4)CC2)c2ccc(F)cc2)cc1 [Compound 146, dihydrochloride]
Data returned: 0.37
